- tested_target: CHEK2 (Homo sapiens, UniProt O96017)
- Sequence (O96017 whole entry): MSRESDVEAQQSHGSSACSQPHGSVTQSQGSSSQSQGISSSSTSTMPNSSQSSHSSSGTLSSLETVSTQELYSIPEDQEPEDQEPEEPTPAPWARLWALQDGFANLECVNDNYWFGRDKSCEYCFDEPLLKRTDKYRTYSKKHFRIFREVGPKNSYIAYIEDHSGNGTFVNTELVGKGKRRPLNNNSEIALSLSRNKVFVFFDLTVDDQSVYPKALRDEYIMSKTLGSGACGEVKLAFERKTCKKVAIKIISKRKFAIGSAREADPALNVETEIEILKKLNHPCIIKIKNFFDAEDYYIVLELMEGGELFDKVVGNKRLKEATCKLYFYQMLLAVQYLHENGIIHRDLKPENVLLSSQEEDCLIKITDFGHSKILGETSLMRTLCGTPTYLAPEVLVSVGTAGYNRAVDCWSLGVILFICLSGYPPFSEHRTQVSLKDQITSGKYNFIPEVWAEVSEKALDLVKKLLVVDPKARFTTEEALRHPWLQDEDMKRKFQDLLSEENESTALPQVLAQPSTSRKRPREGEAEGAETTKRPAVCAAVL
- method: competitive gel-based ABPP with probe […] in HEK293T cells
- Type: cell-based
measured_parameter: IC50

Task: Which IC50 value belongs to C=CC(=O)N[C@@H]1CN(c2nc(Nc3cn(C)nc3OC)c3ncn(C)c3n2)C[C@H]1F ?
Output: ~4 µM
